Tested on: CP192
assay-details: qHTS profiling for inhibitors of Plasmodium falciparum proliferation (AID 504749); also: nearly all actives have a fitted effect of over 60% in size
condition-set: P. falciparum in erythrocytes, SYBR Green DNA, 72 h; series mostly up to 28.7 µM
Inconclusive results are not listed. Calls of active or inactive are those of the source. Calls follow the shape of the dose curve; as a rule, active = well fitted inhibition curve with a large enough effect; inconclusive = small, poorly fitted or top-dose-only effect; inactive = flat fitted curve, though single readings scatter.
Possible outcomes: active, inactive

- compound: "COc1cc(C(=S)N2CCOCC2)ccc1O"
  label-class: "inactive"
- compound: "NC1CCN(c2nc3c(cc2F)c(=O)c(C(=O)O)cn3-c2ccc(F)cc2F)C1 (centres undefined)"
  label-class: "inactive"
- compound: "CCCCC(CC)COC(=O)/C=C/c1ccc(OC)cc1 (centres undefined)"
  label-class: "inactive"
- compound: "N=C(N)N1CCc2ccccc2C1"
  label-class: "inactive"
- compound: "CCCCNc1ccc(C(=O)OCCOCCOCCOCCOCCOCCOCCOCCOCCOC)cc1"
  label-class: "inactive"
- compound: "CC(C)Cc1ccc(CC(=O)O)cc1"
  label-class: "inactive"
- compound: "CN1CCC[C@@H]1CCO[C@](C)(c1ccccc1)c1ccc(Cl)cc1"
  label-class: "inactive"
- compound: "O=C(O)Cc1csc(-c2ccc(Cl)cc2)n1"
  label-class: "inactive"
- compound: "CCOCCn1c(N2CCCN(C)CC2)nc2ccccc21"
  label-class: "inactive"
- compound: "N/C(=N\\N=C\\c1ccc(Cl)cc1)N/N=C/c1ccc(Cl)cc1"
  label-class: "inactive"
- compound: "Cc1cccc(C)c1NC(=O)CN1CCCC1"
  label-class: "inactive"
- compound: "CNCCCCOc1ccccc1Cc1ccccc1"
  label-class: "inactive"
- compound: "NS(=O)(=O)c1ccc(Cl)c(S(N)(=O)=O)c1"
  label-class: "inactive"
- compound: "C=CCN1CCc2nc(N)sc2CC1"
  label-class: "inactive"
- compound: "Nc1nc(-c2ccccc2)c(Br)c(=O)[nH]1"
  label-class: "inactive"
- compound: "C#C[C@]1(O)CC[C@H]2[C@@H]3CCC4=Cc5oncc5C[C@]4(C)[C@H]3CC[C@@]21C"
  label-class: "inactive"
- compound: "CCCCCCCCCCCCCC[N+](C)(C)Cc1ccccc1"
  label-class: "active"
- compound: "CO[C@]12C[C@@H](COC(=O)c3cncc(Br)c3)CN(C)[C@@H]1Cc1cn(C)c3cccc2c13"
  label-class: "inactive"
- compound: "OCCOCCN1CCN(C2=Nc3ccccc3Sc3ccccc32)CC1"
  label-class: "inactive"
- compound: "C[C@@H](O)[C@H]1C(=O)N2C(C(=O)O)=C(S[C@@H]3CN[C@H](CNS(N)(=O)=O)C3)[C@H](C)[C@H]12"
  label-class: "inactive"
- compound: "Nc1ccc(C(=O)NCC(=O)O)cc1"
  label-class: "inactive"
- compound: "C#C[C@]1(O)CC[C@H]2[C@@H]3CCc4cc(OC)ccc4[C@H]3CC[C@@]21C"
  label-class: "inactive"
- compound: "Cc1cccc(C)c1NC(=O)c1ccccc1C(=O)O"
  label-class: "inactive"
- compound: "O=C(O)C1(C(=O)O)CCC1.[NH2-].[NH2-].[Pt+2]"
  label-class: "inactive"
